biological target: H1R (human histamine 1 receptor) (Homo sapiens, UniProt P35367); construct: expressed in transfected cells; assay: competitive SPA binding assay, H1R, 3H-pyrilamine; conditions: selectivity panel
Sequence (P35367 whole entry): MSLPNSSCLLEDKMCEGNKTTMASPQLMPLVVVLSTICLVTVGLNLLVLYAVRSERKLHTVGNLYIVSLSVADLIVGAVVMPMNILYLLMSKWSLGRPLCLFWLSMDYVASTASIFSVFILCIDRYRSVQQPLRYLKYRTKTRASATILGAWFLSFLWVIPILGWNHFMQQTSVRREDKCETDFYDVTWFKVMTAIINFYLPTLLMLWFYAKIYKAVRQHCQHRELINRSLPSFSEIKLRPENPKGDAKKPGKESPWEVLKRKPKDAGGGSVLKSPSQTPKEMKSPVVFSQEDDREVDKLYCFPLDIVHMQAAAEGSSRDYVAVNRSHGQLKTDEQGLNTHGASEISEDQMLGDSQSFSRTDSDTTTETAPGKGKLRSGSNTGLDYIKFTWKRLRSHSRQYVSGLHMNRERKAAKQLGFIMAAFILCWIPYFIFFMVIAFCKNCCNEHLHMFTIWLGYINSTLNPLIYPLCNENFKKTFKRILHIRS
Endpoint name: Ki

[Q] Value lookup for Ki; key = O=C(c1ccc2c(c1)CCCC2)N1CCC[C@H]1CN1CCCC1
[A] ≥ 20000 nM
